The measured values listed here are drawn from ChEMBL document CHEMBL5303573.

# experimental-protocol: The drug is tested on Bifidobacterium breve strain: DSM20213 for biotransformation. The drug concentrations were measured before and after a 12-h incubation by liquid-chromatography-coupled mass spectrometry (LC–MS)
# settings: 2 µM
measured-metric: Bacterial Biotransformation

[[record]]
compound = "Cc1nc2n(c(=O)c1CCN1CCC(c3noc4cc(F)ccc34)CC1)CCCC2O (centres undefined) [PALIPERIDONE]"
assay_result = "Compound metabolized"

[[record]]
compound = "CC(=O)Nc1ccc(OC(C)=O)cc1 [DIACETAMATE]"
assay_result = "Compound metabolized"

[[record]]
compound = "Cc1ccc(-c2cc(C(F)(F)F)nn2-c2ccc(S(N)(=O)=O)cc2)cc1 [CELECOXIB]"
assay_result = "Compound NOT metabolized"

[[record]]
compound = "CS(=O)(=O)O.OC(CCN1CCCCC1)(c1ccccc1)c1ccccc1 [PRIDINOL METHANESULFONATE]"
assay_result = "Compound NOT metabolized"

[[record]]
compound = "CC(NC(C)(C)C)C(=O)c1cccc(Cl)c1 (centres undefined) [BUPROPION]"
assay_result = "Compound NOT metabolized"

[[record]]
compound = "CN(C)CCc1c[nH]c2ccc(CS(=O)(=O)N3CCCC3)cc12 [ALMOTRIPTAN]"
assay_result = "Compound NOT metabolized"

[[record]]
compound = "CCN1CCCC1CNC(=O)c1cc(S(=O)(=O)CC)c(N)cc1OC (centres undefined) [AMISULPRIDE]"
assay_result = "Compound NOT metabolized"

[[record]]
compound = "CN1C(C(=O)Nc2ccccn2)=C(O)c2sccc2S1(=O)=O [TENOXICAM]"
assay_result = "Compound NOT metabolized"

[[record]]
compound = "Cc1ccc(-c2nc3ccc(C)cn3c2CC(=O)N(C)C)cc1 [ZOLPIDEM]"
assay_result = "Compound NOT metabolized"


---

# settings: bacteroides thetaiotaomicron, 12 h, 2 µM
# Description: The drug is tested on Bacteroides thetaiotaomicron strain: 7330 for biotransformation. The drug concentrations were measured before and after a 12-h incubation by liquid-chromatography-coupled mass spectrometry (LC–MS)
measured-metric: Bacterial Biotransformation

[[record]]
compound = "C#C[C@]1(O)CC[C@H]2[C@@H]3CCC4=CC(=O)CC[C@@H]4[C@H]3CC[C@@]21CC [LEVONORGESTREL]"
measured_metric = "Bacterial Biotransformation"
assay_result = "Compound metabolized"

[[record]]
compound = "CC(C)(C(=O)O)c1ccc(C(O)CCCN2CCC(C(O)(c3ccccc3)c3ccccc3)CC2)cc1 (stereo not drawn) [FEXOFENADINE]"
measured_metric = "Bacterial Biotransformation"
assay_result = "Compound NOT metabolized"

[[record]]
compound = "CC(CCc1ccccc1)NCC(O)c1ccc(O)c(C(N)=O)c1 (stereo not drawn) [LABETALOL]"
measured_metric = "Bacterial Biotransformation"
assay_result = "Compound NOT metabolized"

[[record]]
compound = "CC1Cc2ccccc2N1NC(=O)c1ccc(Cl)c(S(N)(=O)=O)c1 (stereo not drawn) [INDAPAMIDE]"
measured_metric = "Bacterial Biotransformation"
assay_result = "Compound NOT metabolized"

[[record]]
compound = "NS(=O)(=O)c1cc2c(cc1Cl)N=C(CSCc1ccccc1)NS2(=O)=O [BENZTHIAZIDE]"
measured_metric = "Bacterial Biotransformation"
assay_result = "Compound NOT metabolized"

[[record]]
compound = "CN1CCc2c(c3ccccc3n2Cc2ccccc2)C1.CN1CCc2c(c3ccccc3n2Cc2ccccc2)C1.O=S(=O)(O)c1cccc2c(S(=O)(=O)O)cccc12"
measured_metric = "Bacterial Biotransformation"
assay_result = "Compound NOT metabolized"

[[record]]
compound = "COc1ccc2[nH]c([S+]([O-])Cc3ncc(C)c(OC)c3C)nc2c1 (stereo not drawn) [OMEPRAZOLE]"
measured_metric = "Bacterial Biotransformation"
assay_result = "Compound metabolized"

[[record]]
compound = "CC(=O)CC(c1ccccc1)c1c(O)c2ccccc2oc1=O (stereo not drawn) [WARFARIN]"
measured_metric = "Bacterial Biotransformation"
assay_result = "Compound NOT metabolized"

